# System: Septoria nodorum
# experimental protocol: Test H: wheat glum blotch, preventive spray on wheat seedlings
# details: 40 ppm (marked *); 100 = 100% disease control, 0 = no control
Marks after values point to notes of the source that are not given here.
Can you tell me Test H disease control rating for the items I'm about to list?

Consider Cc1ccn(-c2nc(Cl)c(-c3c(F)cc(F)cc3F)n(-c3cc(F)cc(F)c3)c2=O)n1 [compound 368] . Its measured Test H disease control rating is 100* %

Data point: Nn1c(-c2c(F)cccc2F)c(Cl)nc(-n2cccn2)c1=O [Compound 400] ; Test H disease control rating = 0* %

response.value for O=c1c(-n2cccn2)nc(Cl)c(-c2c(F)cccc2F)n1Cc1ccc(F)cc1 [compound 272] (field: Test H disease control rating) = 99* %

Lab book: Test H disease control rating of Cc1ccn(-c2nc(Cl)c(-c3c(F)cc(F)cc3F)n(-c3ccc(F)c(F)c3)c2=O)n1 [compound 366] noted as 100* %

Entry Cc1ccn(-c2nc(Cl)c(-c3c(F)cc(F)cc3F)n(-c3cccc(Cl)c3)c2=O)n1 [compound 374] ; Test H disease control rating = 100* %

Consider CCCCn1c(-c2ccc(F)cc2Cl)c(Cl)nc(-n2ccc(C)n2)c1=O [compound 265] . Its measured Test H disease control rating is 95* %

Reported Test H disease control rating ( Cc1ccn(-c2nc(Cl)c(-c3c(F)cccc3F)n(-c3cc(F)cc(F)c3)c2=O)n1 [compound 385] ) = 99* %

Briefly, Test H disease control rating measured for O=c1c(-n2cccn2)nc(Cl)c(-c2c(F)cc(F)cc2F)n1-c1ccccc1F [compound 320] : 100* %

---

# Test system: Septoria nodorum
# experimental protocol: Test H: wheat glum blotch, preventive spray on wheat seedlings
# details: 40 ppm (marked *); 100 = 100% disease control, 0 = no control
Marks after values point to notes of the source that are not given here.
quantity name: Test H disease control rating

# compound CC(C)Cn1c(-c2c(Cl)cc(C(F)(F)F)cc2Cl)c(Cl)nc(-n2cccn2)c1=O ; its Test H disease control rating = 0* %

Field Test H disease control rating (entry O=c1c(-n2cccn2)nc(Cl)c(-c2c(F)cccc2F)n1-c1ccc(F)c(F)c1 ) reads 97* %

So for Cc1ccn(-c2nc(Cl)c(-c3c(F)cc(F)cc3F)n(-c3ccc(F)cc3)c2=O)n1 , the logged Test H disease control rating turned out to be 99* %

Data point: O=c1c(-n2cccn2)nc(Cl)c(-c2c(F)cc(F)cc2F)n1-c1ccccc1Cl ; Test H disease control rating = 100* %

Reported Test H disease control rating ( Cc1ccn(-c2nc(Cl)c(-c3c(F)cc(F)cc3F)n(-c3ccc(F)c(Cl)c3)c2=O)n1 ) = 99* %

Record CCCCn1c(-c2ccc(F)cc2Cl)c(Cl)nc(N2CCC=N2)c1=O , field Test H disease control rating: 0* %

Test H disease control rating reading for O=c1c(-n2cccn2)nc(Cl)c(-c2c(F)cc(F)cc2F)n1-c1ccc(Br)cc1 : 97* %

Reported Test H disease control rating ( Cc1ccn(-c2nc(Cl)c(-c3c(F)cc(F)cc3F)n(-c3ccccc3F)c2=O)n1 ) = 100* %

Per the record, Cc1ccn(-c2nc(Cl)c(-c3c(F)cc(F)cc3F)n(-c3cc(Cl)cc(Cl)c3)c2=O)n1 has Test H disease control rating of 98* %

Value of Test H disease control rating reported for the compound COCCn1c(-c2c(F)cccc2F)c(Cl)nc(-n2ccc(C)n2)c1=O is 64* %

Value of measured Test H disease control rating for the entry O=c1c(-n2cccn2)nc(Cl)c(-c2c(F)cccc2F)n1-c1ccccc1Br : 100* %

Input Cc1ccn(-c2nc(Cl)c(-c3c(F)cccc3F)n(-c3cccc(F)c3)c2=O)n1 . Output Test H disease control rating: 100* %

Test H disease control rating measured on O=c1c(-n2cccn2)nc(Cl)c(-c2c(F)cc(F)cc2F)n1Cc1cccc(C(F)(F)F)c1 = 0* %

Please fill in: Test H disease control rating reported for O=c1c(-n2cccn2)nc(Cl)c(-c2c(F)cc(F)cc2F)n1-c1ccc(Cl)c(Cl)c1 = 100* %

Test H disease control rating reported for this compound O=c1c(-n2cccn2)nc(Cl)c(-c2c(F)cc(F)cc2F)n1-c1ccc(F)cc1 : 100* %

# compound COC(=O)Cn1c(-c2c(F)cccc2F)c(Cl)nc(-n2ccc(C)n2)c1=O ; its Test H disease control rating = 0* %

Cc1nc(-c2ccccn2)c(=O)n(-c2ccccc2)c1-c1c(F)cccc1F has a reported Test H disease control rating of 0* %

Form: compound = O=c1c(-n2cccn2)nc(Cl)c(-c2c(F)cccc2F)n1Cc1ccccc1F [compound 336] ; Test H disease control rating = 99* %

// sample O=c1c(-n2cccn2)nc(Cl)c(-c2c(F)cc(F)cc2F)n1Cc1ccc(Br)cc1 , its Test H disease control rating was 0* %

For reference, reported Test H disease control rating for Cc1ccn(-c2nc(Cl)c(-c3c(F)cccc3F)n(-c3cccc(C)c3C)c2=O)n1 stands at 90* %

// sample O=c1c(-n2cccn2)nc(Cl)c(-c2c(F)cc(F)cc2F)n1-c1ccc(Cl)cc1 , its Test H disease control rating was 100* %

Item: O=c1c(-n2cccn2)nc(Cl)c(-c2c(F)cccc2F)n1-c1ccccc1OC(F)(F)F [compound 396] | Test H disease control rating: 89* %

Lab note: CC[C@H](C)Cn1c(-c2ccc(F)cc2Cl)c(Cl)nc(-n2cccn2)c1=O gave Test H disease control rating of 100* %

// sample CC[C@H](C)Cn1c(-c2ccc(F)cc2Cl)c(Br)nc(-n2cccn2)c1=O , its Test H disease control rating was 100* %

Value of measured Test H disease control rating for the entry O=c1c(-n2cccn2)nc(Cl)c(-c2c(F)cc(F)cc2F)n1-c1ccc(F)c(F)c1 : 100* %

Entry under test: O=c1c(-n2cccn2)nc(Cl)c(-c2c(F)cccc2F)n1C1CC1 . Its Test H disease control rating was 98* %

For O=c1c(-n2cccn2)nc(Cl)c(-c2c(F)cc(F)cc2F)n1Cc1ccccc1Br the compound record lists Test H disease control rating as 99* %

Value of Test H disease control rating reported for the compound N#Cc1nc(Cl)c(-c2c(F)cccc2F)n(Cc2cccc(Cl)c2)c1=O is 0* %

Reported Test H disease control rating ( O=c1c(-n2cncn2)nc(Cl)c(-c2c(F)cccc2F)n1Cc1ccc(F)cc1 ) = 0* %

Per the record, O=c1c(-n2cccn2)nc(Cl)c(-c2c(F)cccc2F)n1-c1cc(F)cc(F)c1 has Test H disease control rating of 99* %

Quick note, Test H disease control rating for CCn1c(-c2ccc(F)cc2Cl)c(Cl)nc(C(N)=O)c1=O landed at 0* %

compound O=c1c(-n2cccn2)nc(Cl)c(-c2c(F)cccc2F)n1CCF , Test H disease control rating observed: 100* %

Lab note: measured Test H disease control rating of O=c1c(-n2cccn2)nc(Cl)c(-c2c(F)cc(F)cc2F)n1-c1cccc(Cl)c1 was 99* %

---

# Test system: Septoria nodorum
# experimental protocol: Test H: wheat glum blotch, preventive spray on wheat seedlings
# details: 40 ppm (marked *); 100 = 100% disease control, 0 = no control
Marks after values point to notes of the source that are not given here.
quantity name: Test H disease control rating

Measured Test H disease control rating (Septoria nodorum), entry CCCCn1c(-c2ccc(F)cc2Cl)c(Cl)nc(-n2cccn2)c1=O : 99* %

Simply: Cc1ccc(-n2c(-c3c(F)cccc3F)c(Cl)nc(-n3ccc(C)n3)c2=O)c(C)c1 , Septoria nodorum, Test H disease control rating = 98* %

Given the molecule O=c1c(-n2cccn2)nc(Cl)c(-c2c(F)cc(F)cc2F)n1-c1ccc(C(F)(F)F)cc1 and test system Septoria nodorum, the measured Test H disease control rating is 91* %

I looked up O=c1c(-n2cccn2)nc(Cl)c(-c2c(F)cccc2F)n1CCO and its Test H disease control rating for Septoria nodorum was 0* %

// assay Septoria nodorum, entry O=c1c(-n2cccn2)nc(Cl)c(-c2c(F)cc(F)cc2F)n1-c1cc(Cl)cc(Cl)c1 , Test H disease control rating value = 100* %

Record O=c1c(-n2cccn2)nc(Cl)c(-c2c(F)cc(F)cc2F)n1Cc1ccccc1C(F)(F)F ; system Septoria nodorum; Test H disease control rating = 64* %

Reading of Test H disease control rating for CC(C)Cn1c(-c2cccc(C#N)c2)c(Cl)nc(-n2cncn2)c1=O with Septoria nodorum: 0* %

Query Cc1ccn(-c2nc(Cl)c(-c3ccc(F)cc3Cl)n(-c3ccccc3)c2=O)n1 on Septoria nodorum; Test H disease control rating returned: 97* %

---

# System: Septoria nodorum
# experimental protocol: Test H: wheat glum blotch, preventive spray on wheat seedlings
# details: 40 ppm (marked *); 100 = 100% disease control, 0 = no control
Marks after values point to notes of the source that are not given here.
Kindly state Test H disease control rating for each of the entries shown.

Query O=c1c(-n2cccn2)nc(Cl)c(-c2c(F)cccc2F)n1CCBr [compound 270] yields Test H disease control rating of 0* %

Lab note: measured Test H disease control rating of CCCn1c(-c2c(F)cc(F)cc2F)c(Cl)nc(C(N)=O)c1=O [compound 413] was 99* %

Form: compound = Cc1ccn(-c2nc(Cl)c(-c3c(F)cccc3F)n(-c3ccccc3C)c2=O)n1 [compound 329] ; Test H disease control rating = 100* %

Record CC[C@H](C)Cn1c(-c2ccc(F)cc2Cl)c(Cl)nc(N2CCC=N2)c1=O [compound 264] . Reported Test H disease control rating: 0* %

Notebook: O=c1c(-n2cccn2)nc(Cl)c(-c2c(F)cc(F)cc2F)n1-c1cccc(C(F)(F)F)c1 [compound 353] , Test H disease control rating read as 98* %

The reported value for O=c1c(-n2cccn2)nc(Cl)c(-c2c(F)cccc2F)n1-c1ccc(OC(F)(F)F)cc1 [compound 398] in terms of Test H disease control rating is 75* %

The reported Test H disease control rating of the compound O=c1c(-n2cccn2)nc(Cl)c(-c2c(F)cccc2F)n1C1CC1c1ccccc1 (centres unmarked) [compound 362] was 0* %

Entry under test: CCC(C)Cn1c(-c2c(F)cccc2F)c(Cl)nc(C(=O)NCCO)c1=O (centres unmarked) [compound 349] . Its Test H disease control rating was 0* %
